Property: protein stability index; scope: individual variants
B1: CLINT1 (parent)
chain: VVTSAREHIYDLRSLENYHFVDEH

variants of: B1; test: protein stability index of a GFP-peptide fusion (GPS, HEK-293T) (PSI 1-6); higher = more stable; settings: c terminus: a fixed tail appended;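 also: lentivirally expressed fusions sorted by FACS into six bins by GFP to DsRed ratio, PSI derived from sequencing read proportions per bin multiplied by bin number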

{"columns": ["Sequence code", "protein stability index"],
 "data": [
  ["VVTSAREHNYDLRSLENYHFVDEH [I9N]", 4.5],
  ["VVTSAREHIYDLRSLENMHFVDEH [Y18M]", 2.88],
  ["VMTSAREHIYDLRSLENYHFVDEH [V2M]", 3.2],
  ["VVTSAREHIYDLRSLENHHFVDEH [Y18H]", 3.59],
  ["VVTSAREHIYDLRSLENYHFVDTH [E23T]", 2.2],
  ["VVTSAREHIYDLRHLENYHFVDEH [S14H]", 2.25],
  ["VVTSAREHIYDLRSLEIYHFVDEH [N17I]", 1.83],
  ["VVMSAREHIYDLRSLENYHFVDEH [T3M]", 2.1],
  ["VVTSAREHIYDLNSLENYHFVDEH [R13N]", 3.35],
  ["VVTSAREHIYKLRSLENYHFVDEH [D11K]", 2.13],
  ["VKTSAREHIYDLRSLENYHFVDEH [V2K]", 3.01]
]}
